- System: KAI3 (IL-2 2.5 ng/mL);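 also: normalised to DMSO-only wells as negative and benzethonium chloride as positive control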
- protocol-text: percent inhibition of viability; higher = more inhibition
- condition-details: 72 h; 10 nM
Measured percent inhibition of viability values are reported for all entries that follow.
reported-metric: percent inhibition of viability (%)

• Cc1cccc(-c2nn3c(c2-c2ccnc4ccc(C(N)=O)cc24)CCC3)n1 [Galunisertib] (max concentration tested 1000 nM) = -2.74
• O=C(O)CCCc1ccc(N(CCCl)CCCl)cc1 [Chlorambucil] (max concentration tested 10000 nM) = 0
• CC(C)NC[C@@H](C(=O)N1CCN(c2ncnc3c2[C@H](C)C[C@H]3O)CC1)c1ccc(Cl)cc1 [GDC-0068] (max concentration tested 10000 nM) = 16.7
• Cn1cc(C2=C(c3cn(C4CCN(Cc5ccccn5)CC4)c4ccccc34)C(=O)NC2=O)c2ccccc21 [Enzastaurin] (max concentration tested 10000 nM) = 1.12
• CO[C@H]1C[C@@H]2CC[C@@H](C)[C@@](O)(O2)C(=O)C(=O)N2CCCC[C@H]2C(=O)O[C@H]([C@H](C)C[C@@H]2CC[C@@H](OCCO)[C@H](OC)C2)CC(=O)[C@H](C)/C=C(\C)[C@@H](O)[C@@H](OC)C(=O)[C@H](C)C[C@H](C)/C=C/C=C/C=C/1C [Everolimus] (max concentration tested 100 nM) = 45.3
